Reported IC50 by item:
Target: Xanthine dehydrogenase/oxidase (Bos taurus)
Sequence (P80457 whole entry): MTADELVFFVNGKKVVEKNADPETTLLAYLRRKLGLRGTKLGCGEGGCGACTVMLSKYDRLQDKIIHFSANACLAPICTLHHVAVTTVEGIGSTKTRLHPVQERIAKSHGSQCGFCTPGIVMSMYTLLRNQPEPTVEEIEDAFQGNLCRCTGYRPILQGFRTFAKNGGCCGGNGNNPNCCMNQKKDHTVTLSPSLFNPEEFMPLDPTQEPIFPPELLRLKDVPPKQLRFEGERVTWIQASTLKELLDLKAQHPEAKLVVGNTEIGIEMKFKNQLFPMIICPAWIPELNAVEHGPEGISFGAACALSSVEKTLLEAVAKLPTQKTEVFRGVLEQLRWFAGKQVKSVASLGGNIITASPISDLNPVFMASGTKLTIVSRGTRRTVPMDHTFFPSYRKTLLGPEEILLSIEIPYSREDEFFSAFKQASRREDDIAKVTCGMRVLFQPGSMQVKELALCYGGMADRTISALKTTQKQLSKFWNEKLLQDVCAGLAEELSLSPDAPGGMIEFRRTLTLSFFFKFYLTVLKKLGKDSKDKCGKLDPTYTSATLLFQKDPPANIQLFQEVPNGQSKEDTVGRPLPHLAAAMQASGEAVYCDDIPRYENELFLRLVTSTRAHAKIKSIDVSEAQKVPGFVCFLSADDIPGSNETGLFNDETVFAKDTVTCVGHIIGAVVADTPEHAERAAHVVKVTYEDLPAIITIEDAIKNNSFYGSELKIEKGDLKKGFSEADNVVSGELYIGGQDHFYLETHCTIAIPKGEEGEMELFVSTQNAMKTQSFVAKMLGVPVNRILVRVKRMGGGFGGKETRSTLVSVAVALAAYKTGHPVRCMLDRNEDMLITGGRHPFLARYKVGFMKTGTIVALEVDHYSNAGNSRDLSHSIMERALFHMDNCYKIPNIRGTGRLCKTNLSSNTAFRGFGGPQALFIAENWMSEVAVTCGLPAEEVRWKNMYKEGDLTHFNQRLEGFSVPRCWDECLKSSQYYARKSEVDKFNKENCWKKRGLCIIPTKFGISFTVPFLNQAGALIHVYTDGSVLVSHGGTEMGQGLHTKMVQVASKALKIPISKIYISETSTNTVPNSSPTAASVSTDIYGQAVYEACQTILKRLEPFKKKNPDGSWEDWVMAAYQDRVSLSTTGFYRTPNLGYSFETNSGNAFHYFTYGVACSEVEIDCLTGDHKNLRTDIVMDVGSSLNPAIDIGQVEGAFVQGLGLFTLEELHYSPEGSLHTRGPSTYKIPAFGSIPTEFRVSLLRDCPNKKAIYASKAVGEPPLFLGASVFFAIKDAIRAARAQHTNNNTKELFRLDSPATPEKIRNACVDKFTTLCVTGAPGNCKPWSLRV
A bare number is not enough; add the unit after it.

Some molecules with recorded IC50:
CCCOc1ccc(NC(=O)c2ccncc2)cc1C#N    3.9 µM
CCCCCCCCOc1ccc(NC(=O)c2ccncc2)cc1C#N    19.2 µM

// switching to the query molecule
### Prompt Name the value of IC50 reported for N#Cc1cc(NC(=O)c2ccncc2)ccc1OCc1ccc(Cl)cc1 when tested on Xanthine dehydrogenase/oxidase (Bos taurus).
### Response 0.8 µM

----------
Target: Xanthine dehydrogenase/oxidase (Bos taurus)
IC50 strictly less than 2000 nM = t. Otherwise f.

Take a look at these entries with their results.
CCCCOc1ccc(NC(=O)c2ccncc2)cc1C#N    f
N#Cc1cc(NC(=O)c2ccncc2)ccc1OCc1ccccc1    t
N#Cc1ccccc1COc1ccc(NC(=O)c2ccncc2)cc1C#N    t

Now take the following molecule into account.
### Prompt Threshold test, IC50 < 2000 nM: CCCCCCOc1ccc(NC(=O)c2ccncc2)cc1C#N
### Response f
